# System: Listeria monocytogenes (ATCC 19112)
# MEASUREMENT_CONTEXT: preliminary peptide screen, peptide purities 50% to 81.9%, tested 1-64 µg/mL; broth microdilution; mean ± SD, n = 3
Marks after values point to notes of the source that are not given here. Ends that are not written are not given here.
ENDPOINT: MIC

• EMIAAAIRAEKSRGGSSRQSIQKYIKSHYK [H5(31–60)] = inactive
• RVKASRRSASHPTYSEMIAAAIRAEKSRGG [H5(16–45)] = inactive
• EMIAAAIRAEKSRGGSSRQS [H5(31–50)] = inactive
• LSIRRLLAAGVLKQTKGVGA [H5(71–90)] = >64^† µg/mL
• VLKQTKGVGASGSFRLAKSD [H5(81–100)] = inactive
